Values from ChEMBL document CHEMBL4825763

assay: AUC (0 to infinity) in rat at 5 mg/kg, ig administered as single dose measured upto 24 hrs by LC-MS/MS analysis; assay type: ADME, organism-based; set-up: route intragastric, dose 5 mg/kg, time <=24; details: in vivo, po
measuredAttribute: AUC(0-inf)
Number plus unit, in that order.

Ask | Can you share its AUC(0-inf)? I mean this compound: CC1(C)CCC(CN2CCN(c3ccc(C(=O)NS(=O)(=O)c4ccc(OCC5CCOCC5)c([N+](=O)[O-])c4)c(Oc4cnc5[nH]ccc5c4)c3)CC2)=C(c2ccc(C(F)(F)F)cc2)C1
Reply | 3130 ng·h/mL

Ask | Here is the next compound: CC1(C)CCC(CN2CCN(c3ccc(C(=O)NS(=O)(=O)c4ccc(NCC5CCOCC5)c([N+](=O)[O-])c4)c(Oc4cnc5[nH]ccc5c4)c3)CC2)=C(c2ccc(Cl)cc2)C1
Reply | 1470 ng·h/mL

* * *

assay: MRT (0 to t) in rat at 5 mg/kg, ig administered as single dose measured upto 24 hrs by LC-MS/MS analysis; assay type: ADME, organism-based; settings: in vivo, po
measuredAttribute: MRT last at 24 h

Ask | Can you share its MRT last at 24 h? I mean this compound: CC1(C)CCC(CN2CCN(c3ccc(C(=O)NS(=O)(=O)c4ccc(NCC5CCOCC5)c([N+](=O)[O-])c4)c(Oc4cnc5[nH]ccc5c4)c3)CC2)=C(c2ccc(Cl)cc2)C1
Reply | 3.55 h

Ask | Here is the next compound: CC1(C)CCC(CN2CCN(c3ccc(C(=O)NS(=O)(=O)c4ccc(OCC5CCOCC5)c([N+](=O)[O-])c4)c(Oc4cnc5[nH]ccc5c4)c3)CC2)=C(c2ccc(C(F)(F)F)cc2)C1
Reply | 5.18 h

* * *

Reported pIC50 values, Bcl-2-like protein 1 (Homo sapiens).
Please treat pIC50 as minus the base-10 logarithm of the molar concentration.

Ask | Can you share its pIC50? I mean this molecule: CCN(CC)CCCNc1ccc(S(=O)(=O)NC(=O)c2ccc(N3CCN(CC4=C(c5ccc(C(F)(F)F)cc5)CC(C)(C)CC4)CC3)cc2Oc2cnc3[nH]ccc3c2)cc1[N+](=O)[O-]
Reply | 7.60

Ask | Here is the next molecule: CC1(C)CCC(CN2CCN(c3ccc(C(=O)NS(=O)(=O)c4ccc(NCC5CCOC5)c([N+](=O)[O-])c4)c(Oc4cnc5[nH]ccc5c4)c3)CC2)=C(c2ccc(C(F)(F)F)cc2)C1 (centres undefined)
Reply | 6.05

Ask | Here is the next molecule: COc1ccc(C2=C(CN3CCN(c4ccc(C(=O)NS(=O)(=O)c5ccc(NCC6CCOCC6)c([N+](=O)[O-])c5)c(Oc5cnc6[nH]ccc6c5)c4)CC3)CCC(C)(C)C2)cc1
Reply | 6.09

Ask | Here is the next molecule: CC1(C)CCC(CN2CCN(c3ccc(C(=O)NS(=O)(=O)c4ccc(OCC5CCSCC5)c([N+](=O)[O-])c4)c(Oc4cnc5[nH]ccc5c4)c3)CC2)=C(c2ccc(C(F)(F)F)cc2)C1
Reply | 6.30

* * *

target: Apoptosis regulator Bcl-2 (Homo sapiens, UniProt P10415); assay: Displacement of Bak derived peptide from Bcl-2 (unknown origin) measured after 15 mins by microplate reader assay
Sequence (P10415 whole entry): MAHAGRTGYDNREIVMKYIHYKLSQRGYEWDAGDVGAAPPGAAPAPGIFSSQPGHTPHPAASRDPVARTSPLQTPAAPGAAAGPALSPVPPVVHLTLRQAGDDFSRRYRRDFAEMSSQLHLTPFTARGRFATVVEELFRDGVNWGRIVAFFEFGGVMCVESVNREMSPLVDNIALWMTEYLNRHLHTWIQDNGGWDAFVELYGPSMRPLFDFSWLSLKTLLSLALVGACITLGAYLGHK
pIC50: −log10 of the molar value.
Assign TRUE to entries whose pIC50 meets or exceeds 9; assign FALSE to the rest.

Ask | Can CCN(CC)CCCNc1ccc(S(=O)(=O)NC(=O)c2ccc(N3CCN(CC4=C(c5ccc(C(F)(F)F)cc5)CC(C)(C)CC4)CC3)cc2Oc2cnc3[nH]ccc3c2)cc1[N+](=O)[O-] be said to have pIC50 at or above 9?
Reply | TRUE

Ask | Here is the next compound: CC(Oc1ccc(S(=O)(=O)NC(=O)c2ccc(N3CCN(CC4=C(c5ccc(C(F)(F)F)cc5)CC(C)(C)CC4)CC3)cc2Oc2cnc3[nH]ccc3c2)cc1[N+](=O)[O-])C1CCOCC1 (configuration not stated)
Reply | FALSE

Ask | Here is the next compound: CC1(C)CCC(CN2CCN(c3ccc(C(=O)NS(=O)(=O)c4ccc(OCC5CCOC5)c([N+](=O)[O-])c4)c(Oc4cnc5[nH]ccc5c4)c3)CC2)=C(c2ccc(C(F)(F)F)cc2)C1 (configuration not stated)
Reply | FALSE
